Provide the recorded IC50 for the entries that follow.
Target: CKIα (Homo sapiens)
Construct: purchased Invitrogen PV3850
Sequence (P48729 whole entry): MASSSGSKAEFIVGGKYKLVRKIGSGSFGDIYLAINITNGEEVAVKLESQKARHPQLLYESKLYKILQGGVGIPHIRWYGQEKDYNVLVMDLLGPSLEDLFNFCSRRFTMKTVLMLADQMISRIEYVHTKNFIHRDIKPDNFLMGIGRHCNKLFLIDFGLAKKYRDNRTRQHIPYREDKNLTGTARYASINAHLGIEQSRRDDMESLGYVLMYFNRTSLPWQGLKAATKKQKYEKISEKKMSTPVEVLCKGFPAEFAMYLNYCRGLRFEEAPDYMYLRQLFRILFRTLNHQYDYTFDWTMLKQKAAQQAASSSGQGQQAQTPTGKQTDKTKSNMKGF
Assay: In vitro kinase assay (Kinase Glo), CKIα
Format: biochemical
Conditions: thermally adapted trans-isomer kept in the dark; read-out: CKIα IC50, dark
Numbers only, in µM.

Batch: IC50 for all items listed.
1. CC(C)n1cnc2c(NCc3cccc(/N=N/c4c(F)cccc4F)c3)ncnc21
2. CC(C)n1cnc2c(NCc3ccc(F)c(/N=N/c4c(F)cccc4F)c3F)ncnc21
3. Cc1nn(C)c(C)c1/N=N/c1cccc(CNc2ncnc3c2ncn3C(C)C)c1
4. CC(C)n1cnc2c(NCc3ccc(/N=N/c4ccccc4)cc3)ncnc21
5. COc1ccc(/N=N/c2cccc(CNc3ncnc4c3ncn4C(C)C)c2)cc1

Ans:
1: 2.4; 2: 5.3; 3: 3; 4: 3.6; 5: 2.8

Batch: IC50 for all items listed.
1. CC(C)n1cnc2c(NCc3cccc(/N=N/c4ccccc4)c3)ncnc21
2. CC(C)n1cnc2c(NCc3ccccc3/N=N/c3ccccc3)ncnc21

Ans:
1.9
96
